- test-name: Solubility of Compound 1 malate after 24 hours in Dissolution Test Solution 1 of the Japanese Pharmacopoeia with 5% surfactant
- Type: physicochemical
- condition-info: pH 1.2, aqueous with cosolvent or surfactant or cyclodextrin, thermodynamic from solid, 5% Polyoxyethylene (10) octylphenyl ether
parameter-measured: solubility at 24 h (µg/mL)
Answers are plain numbers, in µg/mL.

Task: May I ask what solubility at 24 h has been recorded for "Cc1nc2cc(-n3ncc(C(=O)c4cc5ccccc5[nH]4)c3N)ccc2[nH]1" ?
Result: 145

###

- test-name: Solubility of Compound 1 malate after 24 hours in Dissolution Test Solution 1 of the Japanese Pharmacopoeia with 5% surfactant
- Assay type: physicochemical
- condition-info: pH 1.2, aqueous with cosolvent or surfactant or cyclodextrin, thermodynamic from solid, 5% Polysorbate 80
parameter-measured: solubility at 24 h (mg/mL)
Numbers only, in mg/mL.

Task: May I ask what solubility at 24 h has been recorded for "Cc1nc2cc(-n3ncc(C(=O)c4cc5ccccc5[nH]4)c3N)ccc2[nH]1" ?
Result: 0.138

###

- test-name: Solubility of Compound 1 malate after 24 hours in Dissolution Test Solution 1 of the Japanese Pharmacopoeia with 5% surfactant
- Type: physicochemical
- condition-info: pH 1.2, simulated gastric fluid, thermodynamic from solid, no surfactant
- Protocol: The surfactants shown in Table 3 and Dissolution Test Solution 1 of the Japanese Pharmacopoeia were used, and the concentration of each surfactant was adjusted to 5%. Compound 1 malate was sufficiently added thereto, the mixture was stirred, and the solubility after 24 hours was measured.
parameter-measured: solubility at 24 h (µg/mL)
Give bare numbers, in µg/mL.

Task: May I ask what solubility at 24 h has been recorded for "Cc1nc2cc(-n3ncc(C(=O)c4cc5ccccc5[nH]4)c3N)ccc2[nH]1" ?
Result: 18.5
